# System: Akkermansia muciniphila
# assay.notes: growth AUC relative to DMSO control (median of replicates) (fraction); higher = more growth (less inhibition), active = hit call of the paper;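 active = AUC reduced over 20% with Padj below 0.05 in at least 2 of 3 replicates; inactive = otherwise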
# condition.context: 20 µM; 24 h
Please reply with one of these outcomes: 1 (yes) for active, 0 (no) for inactive

compound	target.or.test.system	class.name
O=C(NC(=O)c1c(F)cccc1F)Nc1ccc(OC(F)(F)C(F)OC(F)(F)F)c(Cl)c1 (stereo unspecified)	Akkermansia muciniphila	0 (no)

Turning now to a further compound:
What call does the record list for CC(=O)O.NC(N)=NCCCCCCCCNCCCCCCCCN=C(N)N ?
0 (no)

---

# System: Bacteroides dorei
# assay.notes: growth AUC relative to DMSO control (median of replicates) (fraction); higher = more growth (less inhibition), active = hit call of the paper;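 active = AUC reduced over 20% with Padj below 0.05 in at least 2 of 3 replicates; inactive = otherwise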
# condition.context: 20 µM; 24 h
Please reply with one of these outcomes: active, inactive

Some solved cases for reference:
compound	class.name
CN(C)C(CSS(=O)(=O)[O-])CSS(=O)(=O)O.[Na+]	inactive
OCC1C(CO)C2(Cl)C(Cl)=C(Cl)C1(Cl)C2(Cl)Cl (centres undefined)	inactive
COP(=S)(OC)Oc1ccc(SC)c(C)c1	inactive

What call does the record list for CN(C(=O)COc1nc2ccccc2s1)c1ccccc1 ?
inactive

What call does the record list for C=CCN=C=S ?
inactive

What call does the record list for O=C(O)c1cc(Oc2ccc(C(F)(F)F)cc2Cl)ccc1[N+](=O)[O-] ?
inactive

Taken from the supplement of paper PMC12669032.
